Data provenance: the nanobody polyreactivity screen of Harvey et al. (2022)

- assay.name: yeast display, Sf9 membrane polyspecificity reagent, FACS + sequencing; frameworks hold sequencing errors
quantity.measured: polyreactivity (PSR sort gate)

>>> value_observed("QVQLVESGGGLLQAGGSLRLSCAASGRTFVWNAKGWYRQAPGKERELVAPITNDGSTNYADSVKGRFTISRDNAKNTVYLQMNSLKPEDTAVYYCAKRPRGSRIVPGGYDSWGQGTQVTVSS")
"low polyreactivity"
>>> value_observed("QVQLVESGGGLVQAGGSLRLSCAASGSIFNPNAMGWYRQAPGKETELVAAISWISGRTYYADSGKGRFTISRDNAKNTVYLQMISLKTEDTAVYYCAARYPLTQSKYYYWGQWTQVTVSS")
"high polyreactivity"
>>> value_observed("QVQLVESGGGLVQAGGTLRLSCAASGRTYYPNTMGWYRQAPGKERELVATITRSGGNTYADSVKGRFTISRDNAKNTVYFQMTSLKPEDTAVYYCAARNGRIAWMNYWGQGTQVTVSS")
"low polyreactivity"
>>> value_observed("QVQLEESGGGLVQAGGSLRLSCAASGSIFDTYAMGWYRQAPGNERELVAAISSGGRTYYADSVKGRFTISRDNAKNTVYLQMNSLKPEDTAVYYCNARYHARYGGDYWGQGTQVTVSS")
"high polyreactivity"
>>> value_observed("QVQLVESGGGLVQAGGSLRLSCAASGSTFYIYAMGWYRQAPGKERELVAAITSGGNTYYADSVKGRFTISRDNAKNTVYLQMNSLKPEDTAVYYCAAELYDRWSRMDYWGQGTQVTVSS")
"low polyreactivity"
>>> value_observed("QVQLVESGGGLVQAGGSLRLSCGASGLTFPLYAMGWYRQAPGKERELVAAITFSSGSTRYADSVKGRFTISRDNAKNTGSFQMNSLKPEDTALYYCAAVWYTYRTGPWYDYWGQGTQVTVSS")
"high polyreactivity"
>>> value_observed("QDQLVESGGGLDQAGGSLRLSCAASGSTFPGYAMGWYRQAPGKERELVASIYTGGSTYYADSVKGRFTISRDNAKNTVYLQMNSLKPEDTAVYYCAADSYNVSSLLYYWGQGTQVTVSS")
"low polyreactivity"
>>> value_observed("KLQLVESGGGLDQAGGSLRLSCAASGSIFVAYAMGSYRQAPGKERELVAAISKSGGSKYYADSVKGRFTISRDNAKNTVFLQMNSLKPEDTAVYYCAAGSDDFSRFGYWGQGTQVTVSS")
"low polyreactivity"
>>> value_observed("QVQLVESGGGLVQAGGSLRLSCAASGRIFDSYAMGWYRQAPGKERELVAVISNNDGTTYYADSVKGRFTISRDNAKTTVYLQMNSLKPEDTAVYYCNAVYSSGVDGSEGFDYWGQGTQVTVSS")
"low polyreactivity"
>>> value_observed("QVQLVESGGGLVQAGGRLRLICAASGRIYGYNTMGWYRQAPGKERDFDAAINSGGRTYYADSVKGRFTISRDNAKNTVYLQMNSLKPEDTAVYYCAAGKGRWISGLYYGARYDYWGQGTQVTVSS")
"high polyreactivity"
>>> value_observed("EVQLVESGGGLVQAGGSLRLSCAASGTSFLLYAMGWYRQARGKERELLAAISSSGARTYYADSVKGRCTISRDNAKYTVYLQMNSLKPEDTAVYYCAASRRAYRSSYVSPFGYWGQGTQVTGSS")
"high polyreactivity"

====

- assay.name: yeast display, Sf9 membrane polyspecificity reagent, FACS + sequencing; frameworks hold sequencing errors
quantity.measured: polyreactivity (PSR sort gate)

>>> value_observed("QVQLVESGGGLVQAGGSLRLSCAASGRTLPVYAMGWYRQAPGKERELVAAITYSGGSTSYADYVKGRFTISRDNAKNTVYLQMNTLKPDDTAVYYCAAGYRYSEYYYWGQGTQVTVSS")
"low polyreactivity"
>>> value_observed("QVQLVESGGGLVQAGGSLRLSCAASGNIFVAYPMGWYRKATGKERELVAVISNGGRTYYADSVKGRFTISRDNAKNTVYLQMNSLKPEDTAVYYCATVAHASYGWHNYWGQGTQVTVSS")
"high polyreactivity"
>>> value_observed("QVQLVESGGGLVQAGGSLRLSCAASGSIFRSYAMGWYRQAPGKERELVAAISWDGGTTYYADSVKGRFTISRDNAKNTVYLQMNSLKPEDTAVYYCAADASLLGLFQGYDYRGQGTQVTVSS")
"low polyreactivity"
>>> value_observed("QVQLVESGGGLVQAGGSLRLSCAASGRIIYPNAIGWYRQAPGKERELVAGITSRGGSTYYADSVKGRFTSSRDNAKNTVYLQMNSLKPEDTAVYYCAKRYYYFYPDYDYWGQGTQVTVSS")
"high polyreactivity"
>>> value_observed("QVQLVESGGGLVQAGGSLRLSCAASGSIFSGYAMGWYRQAPGKESELVAAISGSGGSTFYADSVKGRFTISRDNAKNTVYLQMISLKPEDTAVYYCAARRIAPFGRYDYWGQGTQVTVSS")
"low polyreactivity"

====

- assay.name: yeast display, Sf9 membrane polyspecificity reagent, FACS + sequencing; frameworks hold sequencing errors
quantity.measured: polyreactivity (PSR sort gate)

>>> value_observed("QVQLVESGGGLVLAGGSLRLSCAASGSISTNYAMGWYRQAPGKERELVAAISDSSGSTYYADSVKGRFTISRDNAKNIVYLQMNSLKPEDTAVYYCNADSQGGRDVNYDYEYYYWGQGTQVTVSS")
"low polyreactivity"
>>> value_observed("QVQLVESGGGIVQAGGSLRLSCAASGRTFRYNTMGSYRQAPGKERELVAAINSRGGSTYYADSVKGRFTISRDNAKNTVYLQMNSLKPEDTAVYYCAALTRYNTASGYDYWGQGTQVTVSS")
"high polyreactivity"
>>> value_observed("QVQLVESGGGLVQAGGSLRLSCAASGRIFYANTMGWYRQAPGKEWELVAAITSGGSTNYADSVKGRFTISRDNAKNTVYGQKNSLKPEDTAVYYCATKQRRGYWGYITAYARYYWGQGTQVTVSS")
"high polyreactivity"
>>> value_observed("QVHLVESCGGLVQAGGSLRLSCAASGSTFTYNVMGSYRQAPGKERELVAAISWSGGSTFYADSVKGRFTISRDNAKNTVYLQMNSLKPEDTAVYYCNKDHLVYPSEFYYWGQGTQVTVSS")
"low polyreactivity"
>>> value_observed("QVQLVESGGGLVQAGGSLRLSCAASGSIFVGYDMGWYRQAPGKERELVAAITGTVSTYYADSVKGRFTISRDNAKNTVYLQMNSLKPEDTAVYYCAAEFVYAYGDGGVYWSWMEYWGQGTQVTVSS")
"low polyreactivity"
>>> value_observed("QVQLVESGGGLVQAGGSLRLSCAASGSTFRYNAMGWYRQAPGKERELVATITGSGGSTYYADSVKGRFTISRDNAKNTVYLQMNSLKPEDTAVYYCTARYVYGAYSSLSAHYYWGQGTQVTVSS")
"high polyreactivity"
>>> value_observed("QVQLVESGGGLVQAGGSLRLSCAASGSIFWKNVMGSYRQAPGKERELVAGISQNGGSTTYADSVKGRFTISRDNAKNTVYLQMNSLKPEDTAVYYCAAKRYGPFKYGYWGQGTQVTVSS")
"high polyreactivity"
>>> value_observed("HVQLQESGGGLVQAGGSLRLSCAASGSNFRWSPMGWYRLAPGKEREFVAGINRGGITNYADSVKGRFTSSRDNAKNTVYLQMNSLKPEDTALYYCAAIAYPDLPTYFDYDSDYFYRGQGTQVTVSS")
"low polyreactivity"
>>> value_observed("QVQHVESGGGLVQAGGSLRLSCAASGSTFRYYTMGWYRQAPGKERELVAAISGSGGITYYADSVKGRFTISRDNAKNTVYLQMNSLKPEDTAVYYCNAGVFYRDDYWGQGTEVTVSS")
"high polyreactivity"
>>> value_observed("QVQLEESGGGLVQAGGSLRLSSAASGSTFYIYVMGWYSQAPGKERELVARISSSGGSTYYADSVKGRFTISRDNAKNSVYLQMNSLKPVDTAVYYCNVDYGAWYDYWGQGTQVTVSS")
"low polyreactivity"
>>> value_observed("QVQLVESGGGLVQAGGSLRLSCAASGRTFAYNAMGWYRQAPGKERELVAAITFGGGSTYYADSVKGRFTISRDNAKNTVYLQMNSLKPEDTAVYYCTAERGYYYHFGYWGQGTQVTVSS")
"high polyreactivity"

====

- assay.name: yeast display, Sf9 membrane polyspecificity reagent, FACS + sequencing; frameworks hold sequencing errors
quantity.measured: polyreactivity (PSR sort gate)

>>> value_observed("QDQLVESGGGLVQAGGSLRLSCAASGITFQYYAMGWYRQAPGKERELVAAITKRGGSTYYADSVKGRFTISRDNAKNTVYLQMKSLKPEDTAVYYCAADYGSWRNYIFLDDYWGQGTQVTVSS")
"high polyreactivity"
>>> value_observed("QVQLVESRGGLVQAGGSLRLSCAASGNTFYGYAMGWYRPAPGKERELVASITLSGDSTYYADSVKGRFTISRDNAKNTVYLQMNSLKPEDTAVYYCAGVYTYPLGYYHYTYDYWGQGTQVTVSS")
"low polyreactivity"
>>> value_observed("QVQLVESGGGLVQAGGSLRVSCAASGFTFDYYAMGWYRQAPGKEWEFVAAISSRGDDTYYADSVKGRFTISRDNAKNTVYLQMNSLKPEDTAVYYCAKVWRYGRYEYGYWGHGTQVTVSS")
"high polyreactivity"
>>> value_observed("QVQLVESGGGLVQAGGSLRLSCAASGSIFSGYAMGWYRQAPGKERELVAAISGSGGSTFYADSVKGRFTISRDNAKNTVYLQMNSLKPEDTAVYYCAARRIAPYGRYDYWGQGTQVTVSS")
"low polyreactivity"
>>> value_observed("QVQLVESGGGLVQAGGSLRLSCAASGSTFSLNAIGWFRQAPGKERQLVAAITGRGTRTYYADSVKGRFTLSRDNAKNTVYLQMNSLKPEDTAVYYCAKDYPRGSPYGYNYWGQGTQVTVSS")
"high polyreactivity"
